Each entry below carries its reported melting point.

>>> print(df.to_string())
                                   compound  attribute_measured         measured
0  CC(=O)/N=c1\c(F)cn(S(=O)(=O)c2cc(C)c(Cl)cc2C)c(=O)n1C [Compound F35]       melting point           173 °C
1  COC(=O)/N=c1\c(F)cn(S(=O)(=O)c2cc(Cl)sc2Cl)c(=O)n1C [Compound F51]       melting point    148 to 149 °C
2  Cc1ccc(S(=O)(=O)n2cc(F)/c(=N\C(=O)Oc3ccccc3)n(C)c2=O)cc1 [Compound F39]       melting point    200 to 202 °C
3  Cn1c(=O)n(S(=O)(=O)c2ccccc2)cc(F)/c1=N\Cc1ccccc1F [Compound F52]       melting point    189 to 192 °C
4  C/N=c1\c(F)cn(S(=O)(=O)c2ccc(OC(F)(F)F)cc2)c(=O)n1C [Compound F6]       melting point  139.2 to 140 °C
5  COC(=O)/N=c1\c(F)cn(S(=O)(=O)c2ccc(C)cc2)c(=O)n1C [Compound F46]       melting point    145 to 146 °C
6  Cc1ccc(S(=O)(=O)n2cc(F)/c(=N\Cc3ccccc3F)n(C)c2=O)cc1 [Compound F54]       melting point    184 to 187 °C

Please find the next compound below.
So, CCc1ccc(S(=O)(=O)n2cc(F)/c(=N\C(=O)OC)n(C)c2=O)cc1 [Compound F47] ? Its melting point was 125 to 126 °C

* * *

- Tested on: Septoria tritici
- Experiment description: Fungicidal activity: leaf blotch of wheat, one-day protectant and three-day curative tests on wheat plants
- Assay type: in vivo
- Test context: Zymoseptoria tritici, 72 h; Three-Day Curative (3 DC), 100 ppm, wheat plants (variety Yuma); read-out: SEPTTR 100 PPM 3 DC (% Disease Control rating)
Each entry below carries its reported pest or weed control at 100 ppm.

                            molecule_smiles  experimental_system               attribute_measured  measured
0  COC(=O)/N=c1\c(F)cn(S(=O)(=O)c2ccc(C(C)C)cc2)c(=O)n1C     Septoria tritici  pest or weed control at 100 ppm  0 to 25%

So, `CCc1ccc(S(=O)(=O)n2cc(F)/c(=N\C(=O)OC)n(C)c2=O)cc1` ? Its pest or weed control at 100 ppm was 0 to 25%

So, `Cc1ccc(S(=O)(=O)n2cc(F)/c(=N\C(=O)c3ccccc3)n(C(=O)c3ccccc3)c2=O)cc1` ? Its pest or weed control at 100 ppm was 0 to 25%

So, `Cn1c(=O)n(S(=O)(=O)c2ccccc2)cc(F)/c1=N\Cc1ccccc1F` ? Its pest or weed control at 100 ppm was 0 to 25%

So, `C/N=c1\c(F)cn(S(=O)(=O)c2cccc(OC)c2)c(=O)n1C` ? Its pest or weed control at 100 ppm was 76 to 100%

So, `C/N=c1\c(F)cn(S(=O)(=O)c2cc(Cl)cc(Cl)c2)c(=O)n1C` ? Its pest or weed control at 100 ppm was 0 to 25%

So, `COC(=O)/N=c1\c(F)cn(S(=O)(=O)c2cccc(C)c2)c(=O)n1C` ? Its pest or weed control at 100 ppm was 0 to 25%

So, `Cc1ccc(S(=O)(=O)n2cc(F)/c(=N/C(=O)C(C)C)n(COC(=O)C(C)C)c2=O)cc1` ? Its pest or weed control at 100 ppm was 76 to 100%

So, `COC(=O)/N=c1\c(F)cn(S(=O)(=O)c2ccc(OC)cc2)c(=O)n1C` ? Its pest or weed control at 100 ppm was 0 to 25%

So, `COC(=O)/N=c1\c(F)cn(S(=O)(=O)c2cc(C)c(Cl)cc2C)c(=O)n1C` ? Its pest or weed control at 100 ppm was 0 to 25%

So, `C/N=c1\c(F)cn(S(=O)(=O)c2cccs2)c(=O)n1C` ? Its pest or weed control at 100 ppm was 76 to 100%

So, `[2H]C([2H])([2H])/N=c1\c(F)cn(S(=O)(=O)c2ccc(C)cc2)c(=O)n1C([2H])([2H])[2H]` ? Its pest or weed control at 100 ppm was 0 to 25%

So, `C/N=c1\c(F)cn(S(=O)(=O)c2cc(Cl)sc2Cl)c(=O)n1C` ? Its pest or weed control at 100 ppm was 76 to 100%

So, `CCc1ccc(S(=O)(=O)n2cc(F)/c(=N\C(C)=O)n(C)c2=O)cc1` ? Its pest or weed control at 100 ppm was 76 to 100%

So, `Cn1c(=O)n(S(=O)(=O)c2cc(Cl)sc2Cl)cc(F)/c1=N\Cc1ccccc1F` ? Its pest or weed control at 100 ppm was 0 to 25%

So, `CC(=O)/N=c1\c(F)cn(S(=O)(=O)c2ccccc2)c(=O)n1C` ? Its pest or weed control at 100 ppm was 76 to 100%

So, `[2H]C([2H])([2H])/N=c1\c(F)cn(S(=O)(=O)c2ccc(OC)cc2)c(=O)n1C([2H])([2H])[2H]` ? Its pest or weed control at 100 ppm was 0 to 25%

* * *

Attribute measured: melting point

>>> df
                            molecule_smiles           measured
0  C/N=c1\c(F)cn(S(=O)(=O)c2cccc(F)c2)c(=O)n1C  137.3 to 138.9 °C
1  CC(=O)/N=c1\c(F)cn(S(=O)(=O)c2ccc(C)cc2)c(=O)n1C  134.6 to 136.2 °C

Please find the next compound below.
So, `CC(=O)/N=c1\c(F)cn(S(=O)(=O)c2cccc(C)c2)c(=O)n1C` ? Its melting point was 164 °C

* * *

- Tested on: Septoria tritici
- Experiment description: Fungicidal activity: leaf blotch of wheat, one-day protectant and three-day curative tests on wheat plants
- Type: in vivo
- Test context: Zymoseptoria tritici, 24 h; One-Day Protectant (1 DP), 100 ppm, wheat plants (variety Yuma); read-out: SEPTTR 100 PPM 1 DP (% Disease Control rating)
Attribute measured: pest or weed control at 100 ppm

Solved cases (3 shown):
>>> df
                                   compound               attribute_measured    measured
0  COc1ccc(S(=O)(=O)n2cc(F)/c(=N/C(C)=O)n(C)c2=O)cc1 [Compound F26]  pest or weed control at 100 ppm  76 to 100%
1  [2H]C([2H])([2H])/N=c1\c(F)cn(S(=O)(=O)c2ccc(C)cc2)c(=O)n1C([2H])([2H])[2H] [Compound F62]  pest or weed control at 100 ppm    0 to 25%
2  C/N=c1\c(F)cn(S(=O)(=O)c2ccsc2)c(=O)n1C [Compound F17]  pest or weed control at 100 ppm  76 to 100%

Please find the next compound below.
# pest or weed control at 100 ppm measured on Septoria tritici for item C/N=c1\c(F)cn(S(=O)(=O)c2cccc(OC)c2)c(=O)n1C [Compound F12] = 76 to 100%

* * *

Each entry below carries its reported melting point.

                                   compound       measured
0  Cc1cccc(S(=O)(=O)n2cc(F)/c(=N\C(=O)Oc3ccccc3)n(C)c2=O)c1 [Compound F42]  187 to 188 °C
1  COC(=O)/N=c1\c(F)cn(S(=O)(=O)c2cc(C)c(Cl)cc2C)c(=O)n1C [Compound F50]  178 to 179 °C

So, COc1ccc(S(=O)(=O)n2cc(F)/c(=N\C(=O)Oc3ccccc3)n(C)c2=O)cc1 [Compound F24] ? Its melting point was 190 to 193 °C

So, C/N=c1\c(F)cn(S(=O)(=O)c2cc(Cl)cc(Cl)c2)c(=O)n1C [Compound F20] ? Its melting point was 135 to 136.9 °C

So, C/N=c1\c(F)cn(S(=O)(=O)c2ccccc2)c(=O)n1C [Compound F2] ? Its melting point was 142 to 144 °C

So, COC(=O)/N=c1\c(F)cn(S(=O)(=O)c2ccccc2)c(=O)n1C [Compound F45] ? Its melting point was 185 to 186 °C

So, C/N=c1\c(F)cn(S(=O)(=O)c2cccs2)c(=O)n1C [Compound F4] ? Its melting point was 136 to 138 °C

So, C/N=c1\c(F)cn(S(=O)(=O)c2ccc(OC)c(F)c2)c(=O)n1C [Compound F13] ? Its melting point was 138.9 to 140.3 °C

So, C/N=c1\c(F)cn(S(=O)(=O)c2ccc(Cl)cc2)c(=O)n1C [Compound F5] ? Its melting point was 130 to 134 °C
